Measured GR50 LAMSS, listed per entry.
system: LAMSS; assay: Post-emergent Test III, herbicidal activity in wheat and barley; format: in vivo; conditions: probit analysis, dose for growth reduction of 50 percent, 21 days after application
READOUT_LABEL: GR50 LAMSS (g ai/ha)

• COC(=O)c1nc(-c2ccc(F)cc2)c(F)c(N)c1Cl [Compound 204] = 1
• C=Cc1c(C(=O)O)nc(-c2ccc(Cl)c(F)c2)c(F)c1N [Compound 214] = 12
• Nc1c(F)c(-c2ccc(I)cc2)nc(C(=O)O)c1Cl [Compound 45] = 1
• N#Cc1ccc(-c2nc(C(=O)O)c(Cl)c(N)c2F)cc1 [Compound 39] = 1
• Nc1c(F)c(-c2ccc(OC(F)F)cc2)nc(C(=O)O)c1Cl [Compound 143] = 1
